Subject of test: 20S proteasome extracted from rat liver, chymotryptic-like (CT-L) activity (Rattus norvegicus, UniProt P18421+P28075)
Construct: 20S proteasome extracted from rat liver
Test: Proteasome inhibition, chymotryptic-like (CT-L) activity, fluorescent peptide Suc-leu-leu-Val-Tyr-AMC
Assay conditions: rat liver 20S proteasome, 37° C., 1 h
Reported endpoint: pIC50
Give only the number. pIC50 is defined as minus log10 of concentration in molar units.

// query Please look up its pIC50: CC(C)C[C@H](NC(=O)[C@H](Cc1ccc2ccccc2c1)NC(=O)[C@H](Cc1ccc2ccccc2c1)NC(=O)c1cnccn1)B1OC2CC3C[C@@H](C3(C)C)[C@]2(C)O1 (stereo partly shown) [Compound 5h]
// result 9.31

Would you kindly look at the next entry?
// query Which pIC50 reading was recorded for the compound CC(C)C[C@H](NC(=O)[C@H](Cc1ccc2ccccc2c1)NC(=O)[C@H](Cc1ccccc1)NC(=O)c1cnccn1)B(O)O [Compound 6g] ?
// result 9.95
